biological target: NPY2R (Homo sapiens, UniProt P49146); construct: purchased Promega (in-house HiBiT-GPCR construct library, NanoBRET); test: NanoBRET screen HiBiT-NPY2R in HEK293; format: binding; details: NPY2R; tracer 0.1μM
Sequence (P49146 whole entry): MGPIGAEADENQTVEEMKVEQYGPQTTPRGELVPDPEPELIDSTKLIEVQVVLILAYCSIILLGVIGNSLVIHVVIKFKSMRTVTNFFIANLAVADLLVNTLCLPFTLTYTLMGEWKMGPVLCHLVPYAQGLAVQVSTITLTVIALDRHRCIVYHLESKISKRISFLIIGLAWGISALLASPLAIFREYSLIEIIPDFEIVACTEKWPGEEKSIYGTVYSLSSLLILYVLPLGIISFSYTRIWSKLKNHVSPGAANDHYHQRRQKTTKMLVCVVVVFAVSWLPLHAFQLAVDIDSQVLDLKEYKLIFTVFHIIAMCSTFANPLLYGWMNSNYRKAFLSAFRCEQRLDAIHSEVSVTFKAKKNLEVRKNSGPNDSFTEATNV
Label t for high-side NanoBRET Fold Response (at or above 1) and f for low-side NanoBRET Fold Response (below it).

INSERT INTO assay_data (compound, assay_system, classification) VALUES
  ('Cc1nc2n(c(=O)c1CCN1CCC(c3noc4cc(F)ccc34)CC1)CCCC2OC(=O)NCCOCCOCCOCCOCCNC(=O)CCc1ccc2n1[B-](F)(F)[N+]1=C(c3ccc[nH]3)C=CC1=C2 (centres unmarked)', 'NPY2R (Homo sapiens, UniProt P49146)', 't'),
  ('O=C(CCc1ccc2n1[B-](F)(F)[N+]1=C(c3ccc[nH]3)C=CC1=C2)NCc1ccc(C(=O)NCCOCCC(=O)N[C@@H]2CC[C@@]3(O)[C@H]4Cc5ccc(O)c6c5[C@@]3(CCN4CC3CC3)[C@H]2O6)cc1 [Naltrexone-3-NB590]', 'NPY2R (Homo sapiens, UniProt P49146)', 't'),
  ('CC(C)N(CC[C@H](c1ccccc1)c1cc(CCNC(=O)c2ccc(CNC(=O)CCc3ccc4n3[B-](F)(F)[N+]3=C(c5ccc[nH]5)C=CC3=C4)cc2)ccc1O)C(C)C', 'NPY2R (Homo sapiens, UniProt P49146)', 'f');

----------
biological target: ACKR3 (Homo sapiens, UniProt P25106); construct: purchased Promega (in-house HiBiT-GPCR construct library, NanoBRET); test: NanoBRET screen HiBiT-ACKR3 in HEK293; format: binding; details: ACKR3; tracer 1μM
Sequence (P25106 whole entry): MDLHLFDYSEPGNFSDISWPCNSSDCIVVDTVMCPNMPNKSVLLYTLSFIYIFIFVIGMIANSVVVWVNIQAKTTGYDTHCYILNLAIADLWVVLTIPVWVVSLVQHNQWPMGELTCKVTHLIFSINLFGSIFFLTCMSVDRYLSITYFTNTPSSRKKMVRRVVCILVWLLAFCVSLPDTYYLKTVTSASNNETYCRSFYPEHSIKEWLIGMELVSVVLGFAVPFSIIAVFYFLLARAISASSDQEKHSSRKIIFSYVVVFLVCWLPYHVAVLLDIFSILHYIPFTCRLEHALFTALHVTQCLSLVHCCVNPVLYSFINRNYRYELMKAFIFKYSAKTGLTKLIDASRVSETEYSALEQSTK
Below, each entry is listed with its recorded NanoBRET Fold Response.
Property label: NanoBRET Fold Response

INSERT INTO measurements (molecule, property_label, assay_value) VALUES
  ('CCCn1c(=O)c2[nH]c(-c3ccc(OCC(=O)NCCNC(=O)CCOCCNC(=O)c4ccc(CNC(=O)CCc5ccc6n5[B-](F)(F)[N+]5=C(c7ccc[nH]7)C=CC5=C6)cc4)cc3)nc2n(CCC)c1=O', 'NanoBRET Fold Response', 1.49),
  ('O=C(CCc1ccc2n1[B-](F)(F)[N+]1=C(c3ccc[nH]3)C=CC1=C2)NCCOCCOCCNC(=O)OCCOCCN1CCN(C2=Nc3ccccc3Sc3ccccc32)CC1', 'NanoBRET Fold Response', 0.96),
  ('O=C(CCc1ccc2n1[B-](F)(F)[N+]1=C(c3ccc[nH]3)C=CC1=C2)NCc1ccc(C(=O)NCCOCCC(=O)N[C@@H]2CC[C@@]3(O)[C@H]4Cc5ccc(O)c6c5[C@@]3(CCN4CC3CC3)[C@H]2O6)cc1 [Naltrexone-3-NB590]', 'NanoBRET Fold Response', 1.07);

----------
target: CYSLTR2 (Homo sapiens, UniProt Q9NS75); construct: purchased Promega (in-house HiBiT-GPCR construct library, NanoBRET); assay: NanoBRET screen HiBiT-CYSLTR2 in HEK293; type: binding; conditions: CYSLTR2; tracer 1μM
Sequence (Q9NS75 whole entry): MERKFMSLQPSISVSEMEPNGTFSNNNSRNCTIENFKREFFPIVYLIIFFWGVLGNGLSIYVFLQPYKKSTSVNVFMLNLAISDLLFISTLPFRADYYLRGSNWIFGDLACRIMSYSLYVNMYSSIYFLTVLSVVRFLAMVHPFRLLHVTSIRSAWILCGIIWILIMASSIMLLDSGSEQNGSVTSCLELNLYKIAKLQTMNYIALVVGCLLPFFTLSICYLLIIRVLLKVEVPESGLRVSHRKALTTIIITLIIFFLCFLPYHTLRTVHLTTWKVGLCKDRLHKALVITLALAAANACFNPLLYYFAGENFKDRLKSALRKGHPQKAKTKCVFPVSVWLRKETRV
Parameter NanoBRET Fold Response: see the listing below.
Property label: NanoBRET Fold Response

INSERT INTO measurements (compound, assay_value) VALUES
  ('N#CN=C(NCCCOc1cccc(CN2CCCCC2)c1)NCCNC(=O)CCOCCOCCOCCOCCNC(=O)CCc1ccc2n1[B-](F)(F)[N+]1=C(c3ccc[nH]3)C=CC1=C2 [Aminopotentidine-2-NB590]', 0.98),
  ('Cc1cc2c(s1)Nc1ccccc1N=C2N1CCN(CCCNC(=O)CCOCCOCCOCCOCCNC(=O)CCc2ccc3n2[B-](F)(F)[N+]2=C(c4ccc[nH]4)C=CC2=C3)CC1 [Olanzapine-a-2-NB590]', 0.99),
  ('CC(C)N(CC[C@H](c1ccccc1)c1cc(CCNC(=O)CCOCCOCCOCCOCCNC(=O)CCc2ccc3n2[B-](F)(F)[N+]2=C(c4ccc[nH]4)C=CC2=C3)ccc1O)C(C)C [Tolterodine-2-NB590]', 1.00),
  ('O=C(CCc1ccc2n1[B-](F)(F)[N+]1=C(c3ccc[nH]3)C=CC1=C2)NCc1ccc(C(=O)NCCOCCC(=O)N[C@@H]2CC[C@@]3(O)[C@H]4Cc5ccc(O)c6c5[C@@]3(CCN4CC3CC3)[C@H]2O6)cc1 [Naltrexone-3-NB590]', 0.98),
  ('O=C(CCOCCOCCOCCOCCNC(=O)CCc1ccc2n1[B-](F)(F)[N+]1=C(c3ccc[nH]3)C=CC1=C2)NCCCN1CCN(C2=Nc3ccccc3Oc3ccc(Cl)cc32)CC1 [Loxapine-a-2-NB590]', 1.02),
  ('CCCn1c(=O)c2[nH]c(-c3ccc(OCC(=O)NCCNC(=O)CCOCCNC(=O)c4ccc(CNC(=O)CCc5ccc6n5[B-](F)(F)[N+]5=C(c7ccc[nH]7)C=CC5=C6)cc4)cc3)nc2n(CCC)c1=O [XAC-3-NB590]', 1.01);
